Assay: Drug level in mouse brain at 20 umol/kg, po after 7 days
Type: ADME, organism-based
property.name: concentration at 168 h (µmol/g)
Quick note: give the figure in µmol/g, leave out the unit.

Prompt line: Report concentration at 168 h for "COCc1nc(-c2ccc(Cl)cc2)c(-c2ccc(Cl)cc2)nc1C(=S)NC1CCC(F)(F)CC1" please.
Response line: 0.05

----------
Assay: Plasma concentration in mouse at 20 umol/kg, po after 2 hrs
Assay type: ADME, organism-based
property.name: concentration at 2 h (nM)
Quick note: give the figure in nM, leave out the unit.

Here is how some compounds turned out for concentration at 2 h.
1. COCc1nc(-c2ccc(Cl)cc2)c(-c2ccc(Cl)cc2)nc1C(=O)NC1CCC(F)(F)CC1	153
2. COCc1nc(-c2ccc(Cl)cc2)c(-c2ccc(Cl)cc2)nc1C(=S)NC1CCC(F)(F)CC1	604

Turning now to a further compound:
Prompt line: Report concentration at 2 h for Cc1c(C(=O)NN2CCCCC2)nn(-c2ccc(Cl)cc2Cl)c1-c1ccc(Cl)cc1 [RIMONABANT] please.
Response line: 1950

----------
Test: Drug level in mouse brain at 20 umol/kg, po after 6 hrs
Assay type: ADME, organism-based
// reported concentration at 6 h for each item listed
Quick note: give the figure in µmol/g, leave out the unit.

Here is how some compounds turned out for concentration at 6 h.
1) Cc1c(C(=O)NN2CCCCC2)nn(-c2ccc(Cl)cc2Cl)c1-c1ccc(Cl)cc1	0.68
2) COCc1nc(-c2ccc(Cl)cc2)c(-c2ccc(Cl)cc2)nc1C(=O)NC1CCC(F)(F)CC1	0.07

Prompt line: Report concentration at 6 h for "COCc1nc(-c2ccc(Cl)cc2)c(-c2ccc(Cl)cc2)nc1C(=S)NC1CCC(F)(F)CC1" please.
Response line: 0.14

----------
// reported concentration at 0.5 h for each item listed
Assay: Drug level in mouse brain at 20 umol/kg, po after 0.5 hrs
Assay type: ADME, organism-based
Quick note: give the figure in µmol/g, leave out the unit.

Here is how some molecules turned out for concentration at 0.5 h.
1) COCc1nc(-c2ccc(Cl)cc2)c(-c2ccc(Cl)cc2)nc1C(=O)NC1CCC(F)(F)CC1	0.05
2) Cc1c(C(=O)NN2CCCCC2)nn(-c2ccc(Cl)cc2Cl)c1-c1ccc(Cl)cc1 [RIMONABANT]	1.11

Prompt line: Report concentration at 0.5 h for "COCc1nc(-c2ccc(Cl)cc2)c(-c2ccc(Cl)cc2)nc1C(=S)NC1CCC(F)(F)CC1" please.
Response line: 0.18

----------
// reported concentration at 168 h for each item listed
Assay: Plasma concentration in mouse at 20 umol/kg, po after 7 days
Type: ADME, organism-based
Quick note: give the figure in nM, leave out the unit.

1) COCc1nc(-c2ccc(Cl)cc2)c(-c2ccc(Cl)cc2)nc1C(=S)NC1CCC(F)(F)CC1	32

Turning now to a further compound:
Prompt line: Report concentration at 168 h for "COCc1nc(-c2ccc(Cl)cc2)c(-c2ccc(Cl)cc2)nc1C(=O)NC1CCC(F)(F)CC1" please.
Response line: 24

----------
Assay: Aqueous solubility of the compound
Format: physicochemical
property.name: solubility

Here is how some compounds turned out for solubility.
1. O=C(NC1CCC(F)(F)CC1)c1cnc(-c2ccc(Cl)cc2)c(-c2ccc(Cl)cc2)n1	< 0.1 µM
2. COCc1nc(-c2ccc(Cl)cc2)c(-c2ccc(Cl)cc2)nc1C(=S)NC1CCC(F)(F)CC1	< 0.1 µM
3. COCc1nc(-c2ccc(Cl)cc2)c(-c2ccc(Cl)cc2)nc1C(=O)NC1CCC(F)(F)CC1	< 0.1 µM
4. S=C(NC1CCCCC1)c1cnc(-c2ccc(Cl)cc2)c(-c2ccc(Cl)cc2)n1	6.1 µM
5. FC1(F)CCC(NC(=S)c2cnc(-c3ccc(Cl)cc3)c(-c3ccc(Cl)cc3)n2)CC1	6.6 µM
6. O=C(NC1CCCCC1)c1cnc(-c2ccc(Cl)cc2)c(-c2ccc(Cl)cc2)n1	< 0.1 µM

Turning now to a further compound:
Prompt line: Report solubility for "Cc1c(C(=O)NN2CCCCC2)nn(-c2ccc(Cl)cc2Cl)c1-c1ccc(Cl)cc1" please.
Response line: < 1.1 µM

----------
// reported IC50 for each item listed
Molecular target: UniProtKB P21554
Sequence (P21554 whole entry): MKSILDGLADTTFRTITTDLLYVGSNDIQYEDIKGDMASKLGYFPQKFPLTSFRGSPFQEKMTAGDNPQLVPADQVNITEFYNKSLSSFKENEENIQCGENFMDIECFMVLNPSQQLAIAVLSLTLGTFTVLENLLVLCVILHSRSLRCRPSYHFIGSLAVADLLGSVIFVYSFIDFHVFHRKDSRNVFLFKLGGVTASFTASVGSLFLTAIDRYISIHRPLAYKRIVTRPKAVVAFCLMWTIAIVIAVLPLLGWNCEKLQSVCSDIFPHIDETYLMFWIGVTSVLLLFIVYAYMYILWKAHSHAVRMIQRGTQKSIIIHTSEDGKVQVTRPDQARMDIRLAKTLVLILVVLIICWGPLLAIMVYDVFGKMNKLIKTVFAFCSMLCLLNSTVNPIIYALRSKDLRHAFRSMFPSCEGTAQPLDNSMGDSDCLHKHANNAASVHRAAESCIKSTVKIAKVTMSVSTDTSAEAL
Experiment: Agonist activity at human CB1 receptor assessed as stimulation of [35S]GTPgammaS binding
Quick note: give the figure in nM, leave out the unit.

Here is how some molecules turned out for IC50.
1. COCc1nc(-c2ccc(Cl)cc2)c(-c2ccc(Cl)cc2)nc1C(=S)NC1CCC(F)(F)CC1	2.4
2. S=C(NC1CCCCC1)c1cnc(-c2ccc(Cl)cc2)c(-c2ccc(Cl)cc2)n1	5.8
3. O=C(NC1CCC(F)(F)CC1)c1cnc(-c2ccc(Cl)cc2)c(-c2ccc(Cl)cc2)n1	5.3
4. FC1(F)CCC(NC(=S)c2cnc(-c3ccc(Cl)cc3)c(-c3ccc(Cl)cc3)n2)CC1	4.5
5. COCc1nc(-c2ccc(Cl)cc2)c(-c2ccc(Cl)cc2)nc1C(=O)NC1CCC(F)(F)CC1	2.9

Turning now to a further molecule:
Prompt line: Report IC50 for "O=C(NC1CCCCC1)c1cnc(-c2ccc(Cl)cc2)c(-c2ccc(Cl)cc2)n1" please.
Response line: 16.6

----------
Assay: Plasma concentration in mouse at 20 umol/kg, po after 0.5 hrs
Assay type: ADME, organism-based
// reported concentration at 0.5 h for each item listed
Quick note: give the figure in nM, leave out the unit.

Here is how some compounds turned out for concentration at 0.5 h.
1) COCc1nc(-c2ccc(Cl)cc2)c(-c2ccc(Cl)cc2)nc1C(=S)NC1CCC(F)(F)CC1	403
2) Cc1c(C(=O)NN2CCCCC2)nn(-c2ccc(Cl)cc2Cl)c1-c1ccc(Cl)cc1	1360

Prompt line: Report concentration at 0.5 h for "COCc1nc(-c2ccc(Cl)cc2)c(-c2ccc(Cl)cc2)nc1C(=O)NC1CCC(F)(F)CC1" please.
Response line: 136

----------
Assay: Drug level in mouse brain at 20 umol/kg, po after 2 hrs
Type: ADME, organism-based
// reported concentration at 2 h for each item listed
Quick note: give the figure in µmol/g, leave out the unit.

Here is how some compounds turned out for concentration at 2 h.
1) COCc1nc(-c2ccc(Cl)cc2)c(-c2ccc(Cl)cc2)nc1C(=S)NC1CCC(F)(F)CC1	0.32
2) Cc1c(C(=O)NN2CCCCC2)nn(-c2ccc(Cl)cc2Cl)c1-c1ccc(Cl)cc1	1.69

Prompt line: Report concentration at 2 h for "COCc1nc(-c2ccc(Cl)cc2)c(-c2ccc(Cl)cc2)nc1C(=O)NC1CCC(F)(F)CC1" please.
Response line: 0.08

----------
// reported concentration at 6 h for each item listed
Test: Plasma concentration in mouse at 20 umol/kg, po after 6 hrs
Type: ADME, organism-based
Quick note: give the figure in nM, leave out the unit.

1) COCc1nc(-c2ccc(Cl)cc2)c(-c2ccc(Cl)cc2)nc1C(=S)NC1CCC(F)(F)CC1	137

Prompt line: Report concentration at 6 h for Cc1c(C(=O)NN2CCCCC2)nn(-c2ccc(Cl)cc2Cl)c1-c1ccc(Cl)cc1 [RIMONABANT] please.
Response line: 900

Prompt line: Report concentration at 6 h for "COCc1nc(-c2ccc(Cl)cc2)c(-c2ccc(Cl)cc2)nc1C(=O)NC1CCC(F)(F)CC1" please.
Response line: 148
